- Tested on: Staphylococcus aureus (ATCC29213)
- EXPERIMENTAL_PROTOCOL: IC90 determination, microtitre plate assay, STA 29213
- Type: cell-based
- CONDITION_DESCRIPTION: 90% inhibitory concentration for bacterial growth, 24 hours, 37° C.
- Experimental: D.3. In-Vitro Method for Testing Compounds for Anti-Bacterial Activity Against Various Non-Mycobacterial Strains Preparation of Bacterial Suspensions for Susceptibility Testing: […] Flat-bottom, sterile 96-well plastic microtiter plates were filled with 180 μl of sterile deionized water, supplemented with 0.25% BSA. […] At the end of incubation, one day after inoculation, the bacterial growth was quantitated fluorometrically. […]
In this section we review reported IC90 (μg/ml) STA B29213 values for a set of compounds.

COMPOUND: CCN(CC)CCSCC(O)(c1ccccc1)C(c1ccccc1)c1cc2cc(Br)ccc2nc1OC (single isomer, unassigned) [Compound 6]
TESTED_SYSTEM: Staphylococcus aureus (ATCC29213)
IC90 (μg/ml) STA B29213: 51.66 µg/mL
--
COMPOUND: COc1nc2ccc(Br)cc2cc1C(c1ccccc1)C(O)(CSCCCN1CCCCC1)c1ccccc1 (single isomer, unassigned) [Compound 9]
TESTED_SYSTEM: Staphylococcus aureus (ATCC29213)
IC90 (μg/ml) STA B29213: 60.56 µg/mL
--
COMPOUND: COc1nc2ccc(Br)cc2cc1C(c1ccccc1)C(O)(CSCCCN1CCN(C)CC1)c1ccccc1 (single isomer, unassigned) [Compound 11]
TESTED_SYSTEM: Staphylococcus aureus (ATCC29213)
IC90 (μg/ml) STA B29213: 4.93 µg/mL
--
COMPOUND: COc1nc2ccc(Br)cc2cc1C(c1ccccc1)C(O)(CSCCN(C)C)c1ccccc1 (single isomer, unassigned) [Compound 1]
TESTED_SYSTEM: Staphylococcus aureus (ATCC29213)
IC90 (μg/ml) STA B29213: 8.74 µg/mL
--
COMPOUND: CCN(CC)CCCSCC(O)(c1ccccc1)C(c1ccccc1)c1cc2cc(Br)ccc2nc1OC (single isomer, unassigned) [Compound 8]
TESTED_SYSTEM: Staphylococcus aureus (ATCC29213)
IC90 (μg/ml) STA B29213: 1.88 µg/mL
--
COMPOUND: CCN(CC)CCCSCC(O)(c1ccccc1)C(c1ccccc1)c1cc2cc(Br)ccc2nc1OC (single isomer, unassigned) [Compound 7]
TESTED_SYSTEM: Staphylococcus aureus (ATCC29213)
IC90 (μg/ml) STA B29213: 9.41 µg/mL
--
COMPOUND: COc1nc2ccc(Br)cc2cc1C(c1ccccc1)C(O)(CN(CCN(C)C)Cc1ccccc1)c1ccccc1 (centres unmarked) [Compound 15]
TESTED_SYSTEM: Staphylococcus aureus (ATCC29213)
IC90 (μg/ml) STA B29213: 62.46 µg/mL
--
COMPOUND: COc1nc2ccc(Br)cc2cc1C(c1ccccc1)C(O)(CN(C)CCN(C)C)c1ccccc1 (single isomer, unassigned) [Compound 14]
TESTED_SYSTEM: Staphylococcus aureus (ATCC29213)
IC90 (μg/ml) STA B29213: 54.85 µg/mL
--
COMPOUND: COc1nc2ccc(Br)cc2cc1C(c1ccccc1)C(O)(CSCCN(C)C)c1ccccc1 (single isomer, unassigned) [Compound 2]
TESTED_SYSTEM: Staphylococcus aureus (ATCC29213)
IC90 (μg/ml) STA B29213: 21.96 µg/mL
--
COMPOUND: COc1nc2ccc(Br)cc2cc1C(c1ccccc1)C(O)(CSCCCN(C)C)c1ccccc1 (single isomer, unassigned) [Compound 3]
TESTED_SYSTEM: Staphylococcus aureus (ATCC29213)
IC90 (μg/ml) STA B29213: 6.35 µg/mL
--
COMPOUND: COc1nc2ccc(Br)cc2cc1C(c1ccccc1)C(O)(CSCCCN1CCCCC1)c1ccccc1 (single isomer, unassigned) [Compound 10]
TESTED_SYSTEM: Staphylococcus aureus (ATCC29213)
IC90 (μg/ml) STA B29213: 4.81 µg/mL

---

- System: Streptococcus pneumoniae (ATCC6305)
- EXPERIMENTAL_PROTOCOL: IC90 determination, microtitre plate assay, SPN 6305
- Assay type: cell-based
- CONDITION_DESCRIPTION: Streptococcus pneumoniae, ATCC6305, 24 h, 90% inhibitory concentration for bacterial growth, 37° C., read-out: IC90 (μg/ml) SPN 6305
In this section we review reported IC90 values for a set of compounds.

COMPOUND: COc1nc2ccc(Br)cc2cc1C(c1ccccc1)C(O)(CSCCN(C)C)c1ccccc1 (single isomer, unassigned)
IC90 (µg/mL): 4.92

COMPOUND: COc1nc2ccc(Br)cc2cc1C(c1ccccc1)C(O)(CN(CCN(C)C)Cc1ccccc1)c1ccccc1 (stereo not shown)
IC90 (µg/mL): 62.5

COMPOUND: COc1nc2ccc(Br)cc2cc1C(c1ccccc1)C(O)(CSCCCN1CCN(C)CC1)c1ccccc1 (single isomer, unassigned)
IC90 (µg/mL): 2.2

COMPOUND: CCN(CC)CCCSCC(O)(c1ccccc1)C(c1ccccc1)c1cc2cc(Br)ccc2nc1OC (single isomer, unassigned)
IC90 (µg/mL): 2.36

---

- Test system: Streptococcus pneumoniae (ATCC6305)
- EXPERIMENTAL_PROTOCOL: IC90 determination, microtitre plate assay, SPN 6305
- Format: cell-based
- CONDITION_DESCRIPTION: 90% inhibitory concentration for bacterial growth, 24 hours, 37° C.
In this section we review reported IC90 (μg/ml) SPN 6305 values for a set of compounds.

COMPOUND: CCN(CC)CCSCC(O)(c1ccccc1)C(c1ccccc1)c1cc2cc(Br)ccc2nc1OC (single isomer, unassigned) [Compound 5]
IC90 (μg/ml) SPN 6305 (µg/mL): 2.31
//
COMPOUND: COc1nc2ccc(Br)cc2cc1C(c1ccccc1)C(O)(CSCCCN1CCCCC1)c1ccccc1 (single isomer, unassigned) [Compound 10]
IC90 (μg/ml) SPN 6305 (µg/mL): 2.15
//
COMPOUND: COc1nc2ccc(Br)cc2cc1C(c1ccccc1)C(O)(CSCCCN1CCN(C)CC1)c1ccccc1 (single isomer, unassigned)
IC90 (μg/ml) SPN 6305 (µg/mL): 1.96
//
COMPOUND: COc1nc2ccc(Br)cc2cc1C(c1ccccc1)C(O)(CN(CCN(C)C)Cc1ccccc1)c1ccccc1 (stereo not drawn)
IC90 (μg/ml) SPN 6305 (µg/mL): 62.46
//
COMPOUND: CCN(CC)CCCSCC(O)(c1ccccc1)C(c1ccccc1)c1cc2cc(Br)ccc2nc1OC (single isomer, unassigned)
IC90 (μg/ml) SPN 6305 (µg/mL): 2.65
//
COMPOUND: COc1nc2ccc(Br)cc2cc1C(c1ccccc1)C(O)(CSCCCN(C)C)c1ccccc1 (single isomer, unassigned) [Compound 3]
IC90 (μg/ml) SPN 6305 (µg/mL): 2.01
